System: Vero E6
Test details: cell viability relative to DMSO; higher = less toxic
Run conditions: 72 h; 10000 nM
cell viability values, listed per item
Put your answer as a value accompanied by its unit after it.

Answered cases to consult:
C[C@@H]1CN(Cc2ccc(F)cc2)CCN1C(=O)COc1ccc(Cl)cc1NC(N)=O ... 93%
C=Cc1cc(O)cc2nc(-c3ccc(O)c(F)c3)oc12 ... 95.5%
CC1CCN(C(c2ccc(F)cc2)c2ccc(C(C)C(=O)O)cc2-c2ccc(C(F)(F)F)cc2)CC1 (stereo not drawn) ... 100%
CN(C)CC(=O)Nc1ccc2[nH]c(=O)c3ccccc3c2c1 ... 102%
Cc1cc(C)c(NC(=O)C2CC3CCC2C3)c(C)c1 (stereo not drawn) ... 100%
NC1(C(=O)O)CC1 ... 98.4%

# lookup: Vero E6 cell viability, key = `c1cc(-c2cnn3cc(-c4ccc(OCCN5CCCCC5)cc4)cnc23)ccn1`
9.1%

# lookup: Vero E6 cell viability, key = `N#C[C@H](O[C@@H]1O[C@H](CO[C@@H]2O[C@H](CO)[C@@H](O)[C@H](O)[C@H]2O)[C@@H](O)[C@H](O)[C@H]1O)c1ccccc1`
102%

====

Tested on: Calu-3
Test details: drug sensitivity score (DSS) for viability; higher = more toxic; extreme values may be limits of the assay
Run conditions: 72 h
drug sensitivity score values, listed per item
Write no unit; give the number alone.

Answered cases to consult:
CN(C)CCCN1c2ccccc2CCc2ccccc21 [imipramine] ... 0
S=C=Nc1cccc(NC(=S)NCCCCNC(=S)Nc2cccc(N=C=S)c2)c1 [MRS-2578] ... 0
Oc1ccc(-c2nc3cc(O)cc(Br)c3o2)cc1 ... 0
O=C(/C=C/N1C[C@H]2C[C@@H]1CN2c1ccccn1)c1ccccc1O [PFI-3] ... 0
O=C(c1ccc(F)cc1)C1CCN(CCn2c(=O)[nH]c3ccccc3c2=O)CC1 [ketanserin] ... 0

Read the entry O=C(c1ccc(F)cc1)C1CCN(CCCCc2ccccc2)CC1 [4-(4-fluorobenzoyl)-1-(4-phenylbutyl)-piperidine] and write its reported drug sensitivity score.
0.1

Read the entry CCC(=O)N[C@@H]1Cc2ccccc2[C@H](c2ccccc2)C1 [4-P-PDOT] and write its reported drug sensitivity score.
0

Read the entry N[C@@H]1CONC1=O [cycloserine-(D)] and write its reported drug sensitivity score.
0

Read the entry `COc1cc2c(cc1C(F)(F)F)N(C(=O)Nc1cc(F)cc(-c3cccnc3)c1)CC2` and write its reported drug sensitivity score.
0

====

cell viability values, listed per item
Tested on: U2OS
Test details: cell viability relative to DMSO; higher = less toxic
Run conditions: 72 h; 100 nM
Hi! Could you send only the number? It should be in %, unit omitted.

Answered cases to consult:
CC(C)(C)C[C@@H]1N[C@@H](C(=O)N[C@H]2CC[C@H](O)CC2)[C@H](c2cccc(Cl)c2F)[C@]12C(=O)Nc1cc(Cl)ccc12 ... 96.3
N#Cc1c(-c2ccccc2)cc(-c2cc(Br)ccc2O)[nH]c1=O [TCS-PIM-1-1] ... 102
O=C(c1ccc(F)cc1)C1CCN(CCn2c(=O)[nH]c3ccccc3c2=O)CC1 [ketanserin] ... 96.1
COc1ccc(OC)c(CN(C(C)=O)c2cc(F)ccc2Oc2ccccc2)c1 [DAA-1106] ... 100
CO/N=C1/C[C@@H](C(=O)NC[C@@H](O)c2ccccc2)N(C(=O)c2ccc(-c3ccccc3C)cc2)C1 [OT-R-antagonist-1] ... 94.5

Read the entry N[C@@H](Cc1c[nH]c2ccc(O)cc12)C(=O)O [5-hydroxytryptophan] and write its reported cell viability.
99.6

Read the entry CN(C)CCCN1c2ccccc2CCc2ccccc21 [imipramine] and write its reported cell viability.
96

Read the entry CN[C@@H](C)C(=O)N[C@H](C(=O)N1CCC[C@H]1C(=O)N[C@H]1c2ccccc2C[C@H]1OCC#CC#CCO[C@@H]1Cc2ccccc2[C@@H]1NC(=O)[C@@H]1CCCN1C(=O)[C@@H](NC(=O)[C@H](C)NC)C1CCCCC1)C1CCCCC1 [AZD5582] and write its reported cell viability.
98.4

Read the entry CC(=O)Oc1cc(C(F)(F)F)ccc1C(=O)O [triflusal] and write its reported cell viability.
99.5

Read the entry `C[C@H](N/C(=N/C#N)Nc1cccc2ncccc12)c1ccccc1` and write its reported cell viability.
99.1
